Test system: CP238
Experiment: qHTS profiling for inhibitors of Plasmodium falciparum proliferation (AID 504749); also: nearly all actives have a fitted effect of over 60% in size
Conditions: P. falciparum in erythrocytes, SYBR Green DNA, 72 h; series mostly up to 12.8 µM
Inconclusive results are not listed. Active and inactive are the calls of the source. Calls follow the shape of the dose curve; as a rule, active = well fitted inhibition curve with a large enough effect; inconclusive = small, poorly fitted or top-dose-only effect; inactive = flat fitted curve, though single readings scatter.
Outcomes: active, inactive

{"Molecule": "NS(=O)(=O)c1cc([C@@]2(O)NC(=O)c3ccccc32)ccc1Cl", "Class Label": "inactive"}
{"Molecule": "C[N+](C)(C)CC(O)CC(=O)O (stereo unspecified)", "Class Label": "inactive"}
{"Molecule": "CO[C@H]1C[C@@H](O[C@@H]2[C@H](C)[C@H](O[C@@H]3O[C@@H](C)C[C@@H](N(C)C)[C@@H]3O)[C@H](C)C[C@]3(CO3)C(=O)[C@H](C)[C@H](O)[C@H](C)[C@H](C)OC(=O)[C@@H]2C)O[C@@H](C)[C@H]1O", "Class Label": "inactive"}
{"Molecule": "CO[C@]1(NC(=O)CSCC#N)C(=O)N2C(C(=O)O)=C(CSc3nnnn3C)CS[C@H]21", "Class Label": "inactive"}
{"Molecule": "CC1(C)Oc2ccc(C#N)cc2[C@H](N2CCCC2=O)[C@H]1O", "Class Label": "inactive"}
{"Molecule": "CC[C@]1(C)CC(=O)NC1=O", "Class Label": "inactive"}
{"Molecule": "CCN(CC)CCC[C@H](C)Nc1c2ccc(Cl)cc2nc2ccc(OC)cc12", "Class Label": "active"}
{"Molecule": "CC[C@@]12CCCN3CCc4c(n(c5ccccc45)C(=O)C1)[C@H]32", "Class Label": "inactive"}
{"Molecule": "CN(C)[C@H]1C(=O)C(C(=O)NCN2CCCC2)=C(O)[C@]2(O)C(=O)C3=C(O)c4c(O)cccc4[C@@](C)(O)[C@H]3C[C@@H]12", "Class Label": "inactive"}
{"Molecule": "Cn1c(=O)c2c(ncn2C[C@@H](O)CO)n(C)c1=O", "Class Label": "inactive"}
{"Molecule": "CC(=O)OCC1=C(C(=O)O)N2C(=O)[C@@H](NC(=O)CSc3ccncc3)[C@@H]2SC1", "Class Label": "inactive"}

The measured values listed here are drawn from PubChem BioAssay (NCATS).
